Outcome measure: melting point

Record `Cc1cccc(C(=O)c2cc(O)c3ccccc3c2O)c1` , field melting point: 154 to 155 °C

The value of melting point measured for the molecule `Cc1cccc(C(=O)c2cc(O)ccc2O)c1` turned out to be 119 to 120 °C

Kindly note the recorded melting point for `COc1ccc(C(=O)c2cc(O)ccc2O)cc1OC` , which is 79 to 81 °C

# molecule `Cc1ccc(C(=O)c2cc(O)c3ccccc3c2O)cc1` ; its melting point = 150 to 151 °C

The recorded melting point for entry O=C(c1ccccc1)c1cc(O)ccc1O [compound 3, (2,5-Dihydroxyphenyl)(phenyl)methanone] equals 121 to 122 °C

So, `COc1cc(C(=O)c2cc(O)c3ccccc3c2O)cc(OC)c1OC` ? Its melting point was 189 to 191 °C

melting point recorded for this molecule, `COc1ccc(C(=O)c2cc(O)c3ccccc3c2O)cc1` , is 150 to 151 °C

// melting point lookup, molecule = `COc1cc(C(=O)c2cc(O)c3ccccc3c2O)cc(OC)c1O` , result: 173 to 174 °C

# molecule `COc1ccc(C(=O)c2cc(O)ccc2O)cc1` ; its melting point = 144 to 145 °C

// melting point lookup, molecule = `COc1ccc(OC)c(C(=O)c2cc(O)ccc2O)c1` , result: 135 to 136 °C

Reported melting point of `COc1cc(C(=O)c2cc(O)ccc2O)ccc1O` : 221 to 222 °C
